Test system: SF-295 CNS
Test: NCI-60 one-dose screen, 48 h (100 = growth as untreated, 0 = no growth, -100 = all killed)
Settings: 10 µM unless noted
Procedure: Cells are grown in 96 well plates and exposed to the test compound for 48 hours. Compounds are tested at a single concentration, which is 10^-5 M for most compounds. The reported endpoint is percent growth (GI% or GIPRCNT), where numbers from 0 - 100% represent growth inhibition, and numbers from -100% - 0 represent cell death. For example, a value of 40 represents 60% growth inhibition. A value of 0 means no net growth occurred over the course of the experiment. […]
The panel holds about 83,000 compounds, 20% with a hit somewhere; the sample as a whole holds those more often. Active and inactive are the calls of the source. The calls were made as follows: active = growth percent below 10; inactive = the rest.
For each record, write down the corresponding growth.

compound | result
CCCCCCCC[C@@H](O)CC(=O)N[C@@H](CC(N)=O)C(=O)N[C@@H](CCC(N)=O)C(=O)N[C@@H](CC(=O)c1cc(C)cc(O)c1C(=O)c1c(O)cccc1O)CC(C)C | 21% (inactive)
CCO/C=N/C1=C(C#N)C(c2ccc(Cl)cc2)c2c(c3ccc(C)cc3[nH]c2=O)O1 (stereo unspecified) | 89.6% (inactive)
O=c1[nH]c(Nc2ccc(S(=O)(=O)O)cc2)nc2nc(Nc3ccc(NC(=S)Nc4ccccc4)cc3)nc(-c3ccc(O)cc3O)c12 | 121% (inactive)
O=C(NS(=O)(=O)c1ccc2ccccc2c1)n1cc(-c2ccncc2)c(-c2ccc(Cl)c(O)c2)n1 | 91.1% (inactive)
CC(C)(C)n1cc(-c2ccnc(NCCCNS(=O)(=O)c3ccc(C(F)(F)F)cc3)c2)c(-c2cccc(O)c2)n1 | 1.72% (active)

Field: growth. Fill in for each record below.
1. COc1ccc(-c2cc3c(OC)c(OC)c(OC)cc3oc2=O)cc1
2. COc1ccc(/C=C2\N=C(c3ccccc3)N(C(=O)c3ccccc3O)NC2=O)cc1
3. O=C1/C(=C/c2ccccc2)Oc2ccc(O)c(I)c21

Outgoing:
1: 54.3% (inactive); 2: 92.9% (inactive); 3: 104% (inactive)

Give growth for all compounds that follow.
1. CN1C(=O)N(C)C2C1NN=c1s/c(=C\C=C\c3ccccc3)c(=O)n12 (stereo unspecified)
2. Cc1[nH]c2ccc(F)cc2c1CCNC(=O)C1CCN(C(=O)c2ccccc2)C1 (stereo unspecified)
3. Clc1cc2c(nn1)Nc1ccccc1S2
4. O=c1[nH]c2ccc(Br)cc2c2c1C(c1ccc(Cl)cc1)c1c(ncn3nc(-c4ccco4)nc13)O2 (stereo unspecified)
5. CC(C)CC1NC(C)(C)CO1 (stereo unspecified)
6. COc1ccc(C(=O)N2NC(=O)/C(=C/c3cn(-c4ccccc4)nc3-c3ccccc3)N=C2c2ccccc2)cc1
7. COc1ccc(-c2cnoc2-c2ccc(OC)cc2O)cc1

Outgoing:
1. 45.7% (inactive)
2. 96.4% [25 µM] (inactive)
3. 108% (inactive)
4. 87.9% (inactive)
5. 131% (inactive)
6. 86.9% (inactive)
7. 26.9% (inactive)

Report growth for every entry below.
1. COc1ccc2c(c1)C(c1cc(OC)c3c(c1)OCO3)C1=C(COC1=O)N2 (stereo unspecified)
2. Cc1ccc(S(=O)(=O)Nc2c(Br)cc(Br)cc2C(N)=O)cc1
3. CN(CCCCN(C[C@H]1Cc2ncccc2CN1)[C@H]1CCCc2cccnc21)C1CCC(F)(F)CC1

Outgoing:
1: 1.56% (active); 2: 97.3% (inactive); 3: 96.5% (inactive)

Please go through the list and note growth for each compound.
1. O=C(NNC(=O)N1c2ccccc2C=Cc2ccccc21)c1ccccc1
2. Fc1ccc(Nc2ncnc3ccc(-c4cnc5[nH]ccc5c4)cc23)cc1Cl
3. COc1cccc(CC(C)=C(c2ccc(OCCN(C)C)cc2)c2ccc(OCCN(C)C)cc2)c1
4. COc1ccc(Nc2nc(N)nc3c2CCN(Cc2ccc(OC)cc2OC)C3=O)cc1
5. C1=Cc2ccccc2N(c2nnc(-c3ccccc3)o2)c2ccccc21
6. CCCCCCCCCCCCNC(=O)[C@H]1CSC(c2ccsc2)N1 (stereo partly specified)

Outgoing:
1. 95.7% (inactive)
2. -32.2% (active)
3. 22.8% (inactive)
4. 57.1% (inactive)
5. 92% (inactive)
6. -29.9% (active)

Working through the 2 compounds below one at a time, give growth for each.
1. Cc1csc(NC(c2ccc(Br)cc2)c2c(C)nc3ccccn23)n1 (stereo unspecified)
2. COc1ccc(-n2c(-c3ccccc3)c(-c3ccccc3)c3c(SCC(=O)N/N=C/c4ccc(Cl)cc4)ncnc32)cc1

Outgoing:
74.7% (inactive)
92.9% (inactive)

Data origin, for the record: PubChem BioAssay (NCI)
